Origin of measurements: patent US20250154277A1

Biological target: T1, human 5T4-His protein (human, UniProt Q13641 32-355)
T1 construct: also called recombinant 5T4 protein (human 5T4-his tag); human 5T4 protein; not shown: His tag
T1 sequence (looked up): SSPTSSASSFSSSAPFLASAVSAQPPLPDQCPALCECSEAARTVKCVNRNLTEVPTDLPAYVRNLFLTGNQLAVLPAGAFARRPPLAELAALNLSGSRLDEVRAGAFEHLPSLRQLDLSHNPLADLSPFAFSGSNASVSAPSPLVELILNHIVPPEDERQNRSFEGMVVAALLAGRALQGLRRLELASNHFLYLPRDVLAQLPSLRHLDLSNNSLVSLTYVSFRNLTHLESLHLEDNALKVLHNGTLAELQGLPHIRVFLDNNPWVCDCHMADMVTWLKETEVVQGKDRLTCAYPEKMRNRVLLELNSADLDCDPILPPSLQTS
Assay: SPR Biacore, Protein A capture
measured.quantity: kon (M⁻¹ s⁻¹)
Reply with just the number (in M⁻¹ s⁻¹).

Answered cases to consult:
[[record]]
binder = "393E9_hVH2_hVL5 (antibody, V domains shown, humanized) VH: EVQLVESGGGLIQPGGSLRLSCAASGFTFTDYYMSWVRQPPGKGLEWVGFIRNKGNGYTTENSASVKGRFTISRDNSKSTLYLQMNSLRAEDTAVYYCARYRGNPHYAMDYWGQGTLVTVSS VL: EIVLTQSPGTLSLSPGERATLSCRASESVEFYGTSFLQWYQQKPGQAPRLLIYGASNVESGIPDRFSGSGSGTDFTLTISRLEPEDIAVYFCQQSRKVPSTFGGGTKVEIK"
measured_quantity = "kon"
endpoint_value = 217000

[[record]]
binder = "393E9_hVH6_hVL2 (antibody, V domains shown, humanized; also called Hu393E9-62) VH: EVQLVESGGGLVQPGGSLRLSCAASGFTFTDYYMSWVRQAPGKGLEWVGFIRNKGNGYTTENSASVKGRFTISRDNAKSSLYLQMNSLRAEDTAVYYCARYRGNPHYAMDYWGQGTLVTVSS VL: EIVLTQSPATLSVSPGERATLSCRASESVEFYGTSFLQWYQQKPGQAPRLLIYGASNVESGIPARFSGSGSGTEFTLTISSLQSEDIAVYFCQQSRKVPSTFGGGTKVEIK"
measured_quantity = "kon"
endpoint_value = 199000


Kindly note the recorded kon for 393E9_hVH3_hVL4 (antibody, V domains shown, humanized) VH: QVQLVESGGGVVQPGGSLRLSCAASGFTFTDYYMSWVRQAPGKGLEWVGFIRNKGNGYTTENSASVKGRFTISRDNSKSTLYLQMNSLRAEDTAVYYCARYRGNPHYAMDYWGQGTLVTVSS VL: DIVLTQSPLSLPVTPGEPASISCRASESVEFYGTSFLQWYLQKPGQSPQLLIYGASNVESGVPDRFSGSGSGTDFTLKISRVEAEDIGVYFCQQSRKVPSTFGGGTKVEIK , which is 215000

Kindly note the recorded kon for 393E9_hVH1_hVL4 (antibody, V domains shown, humanized) VH: EVQLVESGGGLVQPGGSLRLSCAASGFTFTDYYMSWVRQAPGKGLEWVGFIRNKGNGYTTENSASVKGRFTISRDNSKSTLYLQMNSLRAEDTAVYYCARYRGNPHYAMDYWGQGTLVTVSS VL: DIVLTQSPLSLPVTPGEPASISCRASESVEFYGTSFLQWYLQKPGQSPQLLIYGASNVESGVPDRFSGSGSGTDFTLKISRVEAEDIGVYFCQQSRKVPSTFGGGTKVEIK , which is 199000
